Record form. Attribute: composite z-score. Fill in for each entry.
Test system: Noggin (protein binding on small-molecule microarray)
protocol_notes: small molecules binding Noggin protein – biochemical, 635/667 nm fluorescence, primary screen (AID 1095);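 further: score merges 667 nm feature fluorescence with signal to noise over triplicate slides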
stated_conditions: 635 nm fluorescence, higher = more signal
Give bare numbers.

Please review the entries below; each comes with its answer.
[[record]]
compound = "C[N+](C)(C)CCCCCCNC(=O)[C@H]1C[C@H]2C(=O)N3CCC[C@H]3C(=O)N2[C@H]1c1cccc(OCCO)c1"
metric_name = "composite z-score"
recorded_measurement = 0.666

[[record]]
compound = "CN1C(=O)C2C=CC(C(O)c3ccc(F)cc3)N(N3CCCCC3)C2C1=O (stereo unspecified)"
metric_name = "composite z-score"
recorded_measurement = -0.513

[[record]]
compound = "C=CCN1C(=O)[C@@]2(O[C@@H](CCn3cc([C@H](O)c4ccccc4)nn3)[C@H]([Si](C)(C)c3ccc(OC)cc3)[C@H]2C)c2cc(NC(=O)c3ccc(OC)cc3)ccc21"
metric_name = "composite z-score"
recorded_measurement = 0.551

[[record]]
compound = "C=CCC(OC(C)=O)[C@@H]1[C@@H](N(Cc2ccc(-c3ccccc3)cc2)C(=O)c2cccc3ccccc23)c2cc(OCCCO)ccc2N1C(=O)c1ccc2ccccc2n1 (stereo partly specified)"
metric_name = "composite z-score"
recorded_measurement = -0.0394

[[record]]
compound = "C=CCC(OC(C)=O)[C@@H]1[C@@H](N(Cc2cc3ccccc3o2)C(=O)Cc2ccc(OC)cc2)c2cc(OCCCO)ccc2N1C(=O)c1ccc(-c2ccccc2)cc1 (stereo partly specified)"
metric_name = "composite z-score"
recorded_measurement = -0.624


// sample COCCOC(=O)N1C(=O)[C@@]2(c3cc(C#CCNC(N)=O)ccc31)[C@H](c1ccc(OCCO)cc1)N1[C@H](c3ccccc3)[C@H](c3ccccc3)OC(=O)[C@H]1[C@@H]2C(=O)N1CCN(c2ncccn2)CC1 , its composite z-score was 1.35
